// values below are reported GI50
- System: RXF 393
- test-name: NCI tumour cell line growth inhibition, 48 h
Activity calls are given as the source filed them. Rule as the data show it: active = GI50 up to about 1.1 µM and inactive = higher.

Examples with answers:
molecule	system-name	GI50
FC(F)(F)c1ccc2c(-c3cc[nH]c3)ccnc2c1	RXF 393	22.5 µM (inactive)
O=C1CCCCCCCCCCC1CN(Cc1ccccc1)Cc1ccccc1 (stereo not given)	RXF 393	15.4 µM (inactive)
O=C1C=CC(=O)N1n1c(-c2ccccc2)n[nH]c1=O	RXF 393	> 100 µM (inactive)
COc1ccc(OCC(=N/NC(=O)c2ccncc2)/N=C/c2ccncc2)cc1	RXF 393	36.3 µM (inactive)
CCN(CC)Cc1nc2sc3c(c2c(=O)n1-c1ccccc1)CCCC3	RXF 393	18.5 µM (inactive)

*Q* Complete the entry with GI50 for CN(C)C(=N)NC(=S)N(C)C
*A* > 100 µM (inactive)

*Q* Complete the entry with GI50 for NC(=O)c1ncn(C2C=CC(CP(=O)(O)O)C2)c1N (stereo not given)
*A* > 100 µM (inactive)

*Q* Complete the entry with GI50 for COC(=O)C(=O)C(C(=O)C=C(C)C)C(=O)C(=O)Nc1cccc(C(C)=O)c1 (stereo not given)
*A* > 100 µM (inactive)

*Q* Complete the entry with GI50 for CCOC(=O)Cc1nc2cc(F)c(F)cc2[nH]c1=O
*A* > 100 µM (inactive)

*Q* Complete the entry with GI50 for C/C(=N/Nc1ccc([N+](=O)[O-])cc1[N+](=O)[O-])C(CC(C(=O)NCc1ccccc1)/C(C)=N\Nc1ccc([N+](=O)[O-])cc1[N+](=O)[O-])C(=O)NCc1ccccc1 (stereo not given)
*A* 4.24 µM (inactive)

Cited source for all entries: ChEMBL document CHEMBL1201862
